Readings of inhibition for the listed compounds
# target_system: Single-stranded DNA-binding protein (Escherichia coli (strain K12)) (UniProt P0AGE0)
# test_name: E. coli SSB displacement from DNA, counter-screen for HCV NS3 helicase inhibitor project, biochemical, fluorescence polarization, NIH Clinical Collection (AID 743271)
# test_conditions: stronger effect = higher value, concentration not given here

compound: COC(=O)[C@H](c1ccccc1Cl)N1CCc2sccc2C1
target_system: Single-stranded DNA-binding protein (Escherichia coli (strain K12)) (UniProt P0AGE0)
measure_unit: %
inhibition: 3.34
//
compound: COC(=O)C1=C(C)NC(C)=C(C(=O)OC)C1c1ccccc1[N+](=O)[O-]
target_system: Single-stranded DNA-binding protein (Escherichia coli (strain K12)) (UniProt P0AGE0)
measure_unit: %
inhibition: 1.44
//
compound: COc1ccc(-c2cc(=O)c3c(OC)c(OC)c(OC)c(OC)c3o2)cc1OC
target_system: Single-stranded DNA-binding protein (Escherichia coli (strain K12)) (UniProt P0AGE0)
measure_unit: %
inhibition: -2.41
//
compound: C#C[C@]1(OC(C)=O)CC[C@H]2[C@@H]3CCC4=CC(=O)CC[C@@H]4[C@H]3CC[C@@]21C
target_system: Single-stranded DNA-binding protein (Escherichia coli (strain K12)) (UniProt P0AGE0)
measure_unit: %
inhibition: 7.15
//
compound: CC(C)(C)NCC(O)c1ccc(O)c(CO)c1 (centres undefined)
target_system: Single-stranded DNA-binding protein (Escherichia coli (strain K12)) (UniProt P0AGE0)
measure_unit: %
inhibition: 2.98
//
compound: O=C(O)CCc1nc(-c2ccccc2)c(-c2ccccc2)o1
target_system: Single-stranded DNA-binding protein (Escherichia coli (strain K12)) (UniProt P0AGE0)
measure_unit: %
inhibition: 2.21
//
compound: CCC(=O)OCC(=O)[C@@]1(OC(=O)CC)[C@@H](C)C[C@H]2[C@@H]3CCC4=CC(=O)C=C[C@]4(C)[C@@]3(Cl)[C@@H](O)C[C@@]21C
target_system: Single-stranded DNA-binding protein (Escherichia coli (strain K12)) (UniProt P0AGE0)
measure_unit: %
inhibition: 2.57
//
compound: CCN1CCN(C(=O)N[C@@H](C(=O)N[C@@H]2C(=O)N3[C@@H]2SC(C)(C)[C@@H]3C(=O)O)c2ccccc2)C(=O)C1=O
target_system: Single-stranded DNA-binding protein (Escherichia coli (strain K12)) (UniProt P0AGE0)
measure_unit: %
inhibition: -1.24
//
compound: CC(=O)[C@H]1CC[C@H]2[C@@H]3CCC4=CC(=O)CC[C@]4(C)[C@H]3CC[C@]12C
target_system: Single-stranded DNA-binding protein (Escherichia coli (strain K12)) (UniProt P0AGE0)
measure_unit: %
inhibition: 1.44

----------
# test_name: stimulators of nuclear beta-catenin in C2C12, primary screen, imaging, WNT3A-conditioned medium, mouse C2C12, NPC library (AID 1117326); also: reference of the scale not given here
# test_conditions: at 10 µM, stronger effect = higher value
Active and inactive are the calls of the source. Rule as the data show it: active = nuclear beta-catenin stimulation mostly above about 4.2% (no sharp cut-off); inactive = mostly below about 10%.
Readings of nuclear beta-catenin stimulation for the listed compounds

compound: Cc1ccc(Nc2nccc(N(C)c3ccc4c(C)n(C)nc4c3)n2)cc1S(N)(=O)=O
nuclear beta-catenin stimulation: 5.9% (inactive)
//
compound: N=C(N=C(N)N)N1CCOCC1
nuclear beta-catenin stimulation: 1.2% (inactive)
//
compound: CC1=C(C/C=C(\C)CCC[C@H](C)CCC[C@H](C)CCCC(C)C)C(=O)c2ccccc2C1=O
nuclear beta-catenin stimulation: 0.3% (inactive)
//
compound: OC(CN1CCC(Cc2ccc(F)cc2)CC1)c1ccc(Cl)cc1 (stereo not given)
nuclear beta-catenin stimulation: 2% (inactive)
//
compound: CC1CCc2c(N3CCC(O)CC3)c(F)cc3c(=O)c(C(=O)O)cn1c23 (stereo not given)
nuclear beta-catenin stimulation: 0% (inactive)
//
compound: CC(S)C(=O)NCC(=O)O (stereo not given)
nuclear beta-catenin stimulation: -0.5% (inactive)
//
compound: Cc1ncc(CO)c(CO)c1O
nuclear beta-catenin stimulation: 0.1% (inactive)
//
compound: CN1C(CCl)Nc2cc(Cl)c(S(N)(=O)=O)cc2S1(=O)=O (stereo not given)
nuclear beta-catenin stimulation: -0.9% (inactive)
//
compound: O=C(O)c1cccc(-c2noc(-c3ccccc3F)n2)c1
nuclear beta-catenin stimulation: 2.5% (inactive)
//
compound: Clc1ccc(C(Cn2ccnc2)OCc2ccc(Sc3ccccc3)cc2)c(Cl)c1 (stereo not given)
nuclear beta-catenin stimulation: 8.8% (inactive)
//
compound: CN1CCN(CCCN2c3ccccc3Sc3ccc(S(=O)(=O)N(C)C)cc32)CC1
nuclear beta-catenin stimulation: 33.2% (inactive)
//
compound: Nc1cc(=O)[nH]c(N)n1
nuclear beta-catenin stimulation: 1.3% (inactive)
//
compound: C#C[C@]1(OC(C)=O)CC[C@H]2[C@@H]3CCC4=C[C@@H](OC(C)=O)CC[C@@H]4[C@H]3CC[C@@]21C
nuclear beta-catenin stimulation: 4.6% (inactive)
//
compound: Nc1ccc2cc3ccc(N)cc3nc2c1
nuclear beta-catenin stimulation: 164% (active)
//
compound: O=P(O)(O)C(Cl)(Cl)P(=O)(O)O
nuclear beta-catenin stimulation: 1% (inactive)
//
compound: CCCCCCCCCCCCCCCCO
nuclear beta-catenin stimulation: -0.4% (inactive)
//
compound: CC(C)COC(=O)c1ccc(N)cc1
nuclear beta-catenin stimulation: 0.2% (inactive)
//
compound: C/C(=C(\CCOP(=O)(O)O)SC(=O)c1ccccc1)N(C=O)Cc1cnc(C)nc1N
nuclear beta-catenin stimulation: -2.6% (inactive)
//
compound: O=c1[nH]c(=O)n([C@H]2C[C@H](O)[C@@H](CO)O2)cc1I
nuclear beta-catenin stimulation: -0.5% (inactive)
//
compound: Nc1ccn(C2CO[C@H](CO)O2)c(=O)n1 (stereo not given in full)
nuclear beta-catenin stimulation: 1.3% (inactive)
//
compound: Cc1cc(=O)oc2cc(O)ccc12
nuclear beta-catenin stimulation: -0.6% (inactive)
//
compound: CC(C)(C)C(=O)OCOP(=O)(COCCn1cnc2c(N)ncnc21)OCOC(=O)C(C)(C)C
nuclear beta-catenin stimulation: 79.6% (active)
//
compound: CC[N+](CC)(CC)CCOc1ccc(/C=C/c2ccccc2)cc1
nuclear beta-catenin stimulation: 0.4% (inactive)
//
compound: CC(=O)OCC(=O)[C@@]1(O)CC[C@H]2[C@@H]3CCC4=CC(=O)C=C[C@]4(C)[C@@]3(F)[C@@H](O)C[C@@]21C
nuclear beta-catenin stimulation: 0.8% (inactive)
//
compound: CCOC(=O)Nc1ccc(NCc2ccc(F)cc2)nc1N
nuclear beta-catenin stimulation: 0.2% (inactive)
//
compound: CCCCC[C@@H](O)CC[C@H]1[C@@H]2Cc3cccc(OCC(=O)O)c3C[C@@H]2C[C@@H]1O
nuclear beta-catenin stimulation: -0.3% (inactive)
//
compound: CCCCN(CCCC)CC(O)c1cc(Cl)cc2c1-c1ccc(Cl)cc1/C2=C/c1ccc(Cl)cc1 (stereo not given)
nuclear beta-catenin stimulation: 0.5% (inactive)
//
compound: Cc1ccc(O)cc1
nuclear beta-catenin stimulation: 0.9% (inactive)
//
compound: COc1cc2c(cc1OC)[C@@H]1CC(=O)[C@@H](CC(C)C)CN1CC2
nuclear beta-catenin stimulation: 0.6% (inactive)
//
compound: CN1CCC(Nc2ncc3ncnc(Nc4ccc(F)c(Cl)c4)c3n2)CC1
nuclear beta-catenin stimulation: 11.6% (inactive)
//
compound: Oc1ccc(O)cc1
nuclear beta-catenin stimulation: 10.9% (inactive)
//
compound: C#Cc1cccc(Nc2ncnc3cc(OCCOC)c(OCCOC)cc23)c1
nuclear beta-catenin stimulation: 1.3% (inactive)
//
compound: CN1CCCC(CC2c3ccccc3Sc3ccccc32)C1 (stereo not given)
nuclear beta-catenin stimulation: 0.2% (inactive)
//
compound: c1cnc2cc3c(cc2n1)C1CNCC3C1
nuclear beta-catenin stimulation: -1.2% (inactive)
//
compound: CC(C)(Oc1ccc(C2CC2(Cl)Cl)cc1)C(=O)O (stereo not given)
nuclear beta-catenin stimulation: -1.2% (inactive)
//
compound: CC[N+](CC)(CC(=O)Nc1c(C)cccc1C)Cc1ccccc1
nuclear beta-catenin stimulation: -0.3% (inactive)
//
compound: CC(C)(C)C(=O)OCOC(=O)[C@@H]1N2C(=O)[C@@H](NC(=O)[C@H](N)c3ccccc3)[C@H]2SC1(C)C
nuclear beta-catenin stimulation: -2.4% (inactive)
//
compound: CC1(O)CCC(C(C)(C)O)CC1 (stereo not given)
nuclear beta-catenin stimulation: -0.3% (inactive)
//
compound: O=C(O)C1CCC1
nuclear beta-catenin stimulation: -0.9% (inactive)
//
compound: CNC1CCCN(c2c(F)cc3c(=O)c(C(=O)O)cn(C4CC4)c3c2OC)C1 (stereo not given)
nuclear beta-catenin stimulation: -0.1% (inactive)
//
compound: Cc1c(C(=O)NN2CCCCC2)nn(-c2ccc(Cl)cc2Cl)c1-c1ccc(Cl)cc1
nuclear beta-catenin stimulation: -0.4% (inactive)
//
compound: CCOc1cc(NC(C)=O)ccc1C(=O)OC
nuclear beta-catenin stimulation: 2.6% (inactive)
//
compound: CCCCCCCCCCCCCCCC(=O)OCC=C(C)C=CC=C(C)C=CC1=C(C)CCCC1(C)C
nuclear beta-catenin stimulation: -1.5% (inactive)
//
compound: CC[C@]1(O)C[C@H]2CN(CCc3c([nH]c4ccccc34)[C@@](C(=O)OC)(c3cc4c(cc3OC)N(C=O)[C@H]3[C@@](O)(C(=O)OC)[C@H](OC(C)=O)[C@]5(CC)C=CCN6CC[C@]43[C@@H]65)C2)C1
nuclear beta-catenin stimulation: 44% (active)
//
compound: C[N+]1(C)CCC(=C(c2ccccc2)c2ccccc2)CC1
nuclear beta-catenin stimulation: 1.1% (inactive)
